# credit: BindingDB's records for doi:10.1021/cb900264w

- Tested system: Amine oxidase [flavin-containing] B (Rattus norvegicus, UniProt P19643)
- Sequence (P19643 whole entry): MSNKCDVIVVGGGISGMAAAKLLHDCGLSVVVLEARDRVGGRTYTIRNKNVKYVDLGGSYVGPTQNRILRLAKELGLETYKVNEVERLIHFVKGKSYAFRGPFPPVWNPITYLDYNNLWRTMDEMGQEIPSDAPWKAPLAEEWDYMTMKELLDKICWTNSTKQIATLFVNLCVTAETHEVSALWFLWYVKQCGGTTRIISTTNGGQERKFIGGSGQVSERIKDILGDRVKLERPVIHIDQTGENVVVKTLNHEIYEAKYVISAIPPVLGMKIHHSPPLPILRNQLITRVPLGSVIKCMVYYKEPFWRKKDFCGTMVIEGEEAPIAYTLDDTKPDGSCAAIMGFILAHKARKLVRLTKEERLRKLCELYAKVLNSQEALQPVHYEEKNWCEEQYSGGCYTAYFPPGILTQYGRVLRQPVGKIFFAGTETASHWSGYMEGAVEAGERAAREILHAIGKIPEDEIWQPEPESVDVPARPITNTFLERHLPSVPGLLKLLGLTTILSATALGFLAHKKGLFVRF
Metric: IC50 (µM)
Please reply with the bare figure in µM and do not write the unit itself.

Quote IC50 with test system Amine oxidase [flavin-containing] B (Rattus norvegicus, UniProt P19643) for C#CCN(C)Cc1ccc(OC(=O)N(C)C)c2ncccc12 [Prochelators, 2]
7.9
